Consider the following sequences; for each one, report its thermal stability score.
Tested on: HeLa Kyoto
Assay Name: thermal stability score vs G1/S (z-score of summed log2 fold changes over temperatures); higher = more thermally stable than in G1/S
Recorded Conditions: cell cycle stage: early G1 (4.5 h after nocodazole release)
Please reply with the number alone, leaving off any unit.

Test system HeLa Kyoto; read-out thermal stability score; what value for MAAPKGSLWVRTQLGLPPLLLLTMALAGGSGTASAEAFDSVLGDTASCHRACQLTYPLHTYPKEEELYACQRGCRLFSICQFVDDGIDLNRTKLECESACTEAYSQSDEQYACHLGCQNQLPFAELRQEQLMSLMPKMHLLFPLTLVRSFWSDMMDSAQSFITSSWTFYLQADDGKIVIFQSKPEIQYAPHLEQEPTNLRESSLSKMSYLQMRNSQAHRNFLEDGESDGFLRCLSLNSGWILTTTLVLSVMVLLWICCATVATAVEQYVPSEKLSIYGDLEFMNEQKLNRYPASSLVVVRSKTEDHEEAGPLPTKVNLAHSEI [TMEM59] ?;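 further: synchronized HeLa Kyoto cells, proteins quantified by TMT10plex mass spectrometry, three biological replicates, mitosis taken 0.5 h after nocodazole release, G1/S directly after double thymidine block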
0.0515

// query: MAATSLMSALAARLLQPAHSCSLRLRPFHLAAVRNEAVVISGRKLAQQIKQEVRQEVEEWVASGNKRPHLSVILVGENPASHSYVLNKTRAAAVVGINSETIMKPASISEEELLNLINKLNNDDNVDGLLVQLPLPEHIDERRICNAVSPDKDVDGFHVINVGRMCLDQYSMLPATPWGVWEIIKRTGIPTLGKNVVVAGRSKNVGMPIAMLLHTDGAHERPGGDATVTISHRYTPKEQLKKHTILADIVISAAGIPNLITADMIKEGAAVIDVGINRVHDPVTAKPKLVGDVDFEGVRQKAGYITPVPGGVGPMTVAMLMKNTIIAAKKVLRLEEREVLKSKELGVATN [MTHFD2]
0.31

// query: MYHNSSQKRHWTFSSEEQLARLRADANRKFRCKAVANGKVLPNDPVFLEPHEEMTLCKYYEKRLLEFCSVFKPAMPRSVVGTACMYFKRFYLNNSVMEYHPRIIMLTCAFLACKVDEFNVSSPQFVGNLRESPLGQEKALEQILEYELLLIQQLNFHLIVHNPYRPFEGFLIDLKTRYPILENPEILRKTADDFLNRIALTDAYLLYTPSQIALTAILSSASRAGITMESYLSESLMLKENRTCLSQLLDIMKSMRNLVKKYEPPRSEEVAVLKQKLERCHSAELALNVITKKRKGYEDDDYVSKKSKHEEEEWTDDDLVESL [CCNH]
0.868

// query: MQPPGPPPAYAPTNGDFTFVSSADAEDLSGSIASPDVKLNLGGDFIKESTATTFLRQRGYGWLLEVEDDDPEDNKPLLEELDIDLKDIYYKIRCVLMPMPSLGFNRQVVRDNPDFWGPLAVVLFFSMISLYGQFRVVSWIITIWIFGSLTIFLLARVLGGEVAYGQVLGVIGYSLLPLIVIAPVLLVVGSFEVVSTLIKLFGVFWAAYSAASLLVGEEFKTKKPLLIYPIFLLYIYFLSLYTGV [YIPF4]
-0.481

// query: MKGLYFQQSSTDEEITFVFQEKEDLPVTEDNFVKLQVKACALSQINTKLLAEMKMKKDLFPVGREIAGIVLDVGSKVSFFQPDDEVVGILPLDSEDPGLCEVVRVHEHYLVHKPEKVTWTEAAGSIRDGVRAYTALHYLSHLSPGKSVLIMDGASAFGTIAIQLAHHRGAKVISTACSLEDKQCLERFRPPIARVIDVSNGKVHVAESCLEETGGLGVDIVLDAGVRLYSKDDEPAVKLQLLPHKHDIITLLGVGGHWVTTEENLQLDPPDSHCLFLKGATLAFLNDEVWNLSNVQQGKYLCILKDVMEKLSTGVFRPQLDEPIPLYEAKVSMEAVQKNQGRKKQVVQF [CRYZL1]
0.0481

// query: MAIRKKSTKSPPVLSHEFVLQNHADIVSCVAMVFLLGLMFEITAKASIIFVTLQYNVTLPATEEQATESVSLYYYGIKDLATVFFYMLVAIIIHAVIQEYMLDKINRRMHFSKTKHSKFNESGQLSAFYLFACVWGTFILISENYISDPTILWRAYPHNLMTFQMKFFYISQLAYWLHAFPELYFQKTKKEDIPRQLVYIGLYLFHIAGAYLLNLNHLGLVLLVLHYFVEFLFHISRLFYFSNEKYQKGFSLWAVLFVLGRLLTLILSVLTVGFGLARAENQKLDFSTGNFNVLAVRIAVLASICVTQAFMMWKFINFQLRRWREHSAFQAPAVKKKPTVTKGRSSKKGTENGVNGTLTSNVADSPRNKKEKSS [TRAM1]
-0.164

// query: MDKQNSQMNASHPETNLPVGYPPQYPPTAFQGPPGYSGYPGPQVSYPPPPAGHSGPGPAGFPVPNQPVYNQPVYNQPVGAAGVPWMPAPQPPLNCPPGLEYLSQIDQILIHQQIELLEVLTGFETNNKYEIKNSFGQRVYFAAEDTDCCTRNCCGPSRPFTLRIIDNMGQEVITLERPLRCSSCCCPCCLQEIEIQAPPGVPIGYVIQTWHPCLPKFTIQNEKREDVLKISGPCVVCSCCGDVDFEIKSLDEQCVVGKISKHWTGILREAFTDADNFGIQFPLDLDVKMKAVMIGACFLIDFMFFESTGSQEQKSGVW [PLSCR1]
-0.835

// query: MASGNARIGKPAPDFKATAVVDGAFKEVKLSDYKGKYVVLFFYPLDFTFVCPTEIIAFSNRAEDFRKLGCEVLGVSVDSQFTHLAWINTPRKEGGLGPLNIPLLADVTRRLSEDYGVLKTDEGIAYRGLFIIDGKGVLRQITVNDLPVGRSVDEALRLVQAFQYTDEHGEVCPAGWKPGSDTIKPNVDDSKEYFSKHN [PRDX2]
-3.24

// query: MAAAGAPDGMEEPGMDTEAETVATEAPARPVNCLEAEAAAGAAAEDSGAARGSLQPAPAQPPGDPAAQASVSNGEDAGGGAGRELVDLKIIWNKTKHDVKFPLDSTGSELKQKIHSITGLPPAMQKVMYKGLVPEDKTLREIKVTSGAKIMVVGSTINDVLAVNTPKDAAQQDAKAEENKKEPLCRQKQHRKVLDKGKPEDVMPSVKGAQERLPTVPLSGMYNKSGGKVRLTFKLEQDQLWIGTKERTEKLPMGSIKNVVSEPIEGHEDYHMMAFQLGPTEASYYWVYWVPTQYVDAIKDTVLGKWQYF [UBFD1]
-0.222
